biological target: Aminopeptidase N (Plasmodium falciparum (isolate 3D7)) (UniProt O96935); assay: malaria alanyl aminopeptidase activity blockers – biochemical, fluorogenic H-Leu-NHMec substrate, 1536-well (AID 1445); settings: recombinant M1AAP, H-Leu-NHMec fluorogenic kinetic assay; at 30 µM
Sequence (O96935 whole entry, looked up): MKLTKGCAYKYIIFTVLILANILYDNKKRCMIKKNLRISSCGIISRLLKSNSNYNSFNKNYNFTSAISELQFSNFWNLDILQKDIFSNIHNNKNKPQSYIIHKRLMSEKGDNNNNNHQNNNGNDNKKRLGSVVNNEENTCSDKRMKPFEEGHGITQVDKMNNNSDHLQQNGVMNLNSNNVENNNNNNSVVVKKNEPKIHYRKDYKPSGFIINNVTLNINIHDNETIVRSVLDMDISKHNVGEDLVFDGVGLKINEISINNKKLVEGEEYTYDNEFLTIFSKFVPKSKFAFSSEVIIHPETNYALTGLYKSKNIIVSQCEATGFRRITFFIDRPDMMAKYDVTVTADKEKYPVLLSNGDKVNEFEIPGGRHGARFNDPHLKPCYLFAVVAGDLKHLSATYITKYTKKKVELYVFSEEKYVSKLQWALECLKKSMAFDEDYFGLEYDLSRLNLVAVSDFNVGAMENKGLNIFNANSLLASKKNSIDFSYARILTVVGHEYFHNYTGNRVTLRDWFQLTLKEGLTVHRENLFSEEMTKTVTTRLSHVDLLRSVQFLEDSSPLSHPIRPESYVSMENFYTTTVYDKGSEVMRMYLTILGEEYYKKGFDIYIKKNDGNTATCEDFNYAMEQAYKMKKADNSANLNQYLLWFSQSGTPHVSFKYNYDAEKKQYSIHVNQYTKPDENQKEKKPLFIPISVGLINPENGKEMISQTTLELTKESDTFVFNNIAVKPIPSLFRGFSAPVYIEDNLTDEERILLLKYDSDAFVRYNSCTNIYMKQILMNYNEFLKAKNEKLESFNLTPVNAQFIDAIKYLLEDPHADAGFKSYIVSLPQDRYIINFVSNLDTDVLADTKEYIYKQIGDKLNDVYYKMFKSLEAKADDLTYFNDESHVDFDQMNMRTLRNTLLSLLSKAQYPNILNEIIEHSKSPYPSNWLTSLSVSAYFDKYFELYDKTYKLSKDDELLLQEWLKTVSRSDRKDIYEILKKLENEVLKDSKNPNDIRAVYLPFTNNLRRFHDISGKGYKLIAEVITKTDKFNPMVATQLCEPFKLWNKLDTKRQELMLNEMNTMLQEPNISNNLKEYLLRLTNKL
Out of some 220,000 compounds screened, about 910 (0.41%) were called active.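 The calls were made as follows: active = primary inhibition above the hit cutoff, then over 50% inhibition at one or more dose response concentrations (cut at about 23% in these data, passing the limit was not always enough); inconclusive = conflicting primary data, or primary hits not chosen for dose response; inactive = low primary inhibition, or under 50% at every dose.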 This is one part of a sample in which actives are shown more often than they occur. Potency and affinity values are given separately.
Outcome codes: YES for active, NO for inactive

[
  {
    "MOLECULE": "O=C(NNC(=O)C1CCN(S(=O)(=O)c2cccc(C(F)(F)F)c2)CC1)C1CC1",
    "LABEL VALUE": "NO"
  },
  {
    "MOLECULE": "Cc1cccc(C)c1NS(=O)(=O)c1ccc(OCCNS(C)(=O)=O)cc1",
    "LABEL VALUE": "NO"
  },
  {
    "MOLECULE": "O=C(C1=C(O)C(=O)N(CCc2ccccc2)C1c1cccnc1)c1ccco1 (stereo unspecified)",
    "LABEL VALUE": "NO"
  },
  {
    "MOLECULE": "Cc1c(Cl)cnc(NC(=O)CSc2nncs2)c1Cl",
    "LABEL VALUE": "NO"
  },
  {
    "MOLECULE": "COc1ccccc1NC(=O)CSc1nnc(-c2ccoc2C)n1CCc1ccccc1",
    "LABEL VALUE": "YES"
  },
  {
    "MOLECULE": "CS(=O)(=O)N1CCC(C(=O)Nc2cccc(Cl)c2)CC1",
    "LABEL VALUE": "NO"
  },
  {
    "MOLECULE": "Cc1occc1-c1nnc(SCC(=O)Nc2ccccc2)n1CCc1ccccc1",
    "LABEL VALUE": "NO"
  },
  {
    "MOLECULE": "O=C(Nc1ccc2c(c1)OCO2)C1CCCN(S(=O)(=O)c2cccs2)C1 (stereo unspecified)",
    "LABEL VALUE": "NO"
  },
  {
    "MOLECULE": "COc1ccc(-c2nnc(SCC(=O)Nc3cc(F)ccc3C)o2)cc1",
    "LABEL VALUE": "NO"
  },
  {
    "MOLECULE": "O=C(NCc1ccccc1)C1CCCN(S(=O)(=O)c2cccnc2)C1 (stereo unspecified)",
    "LABEL VALUE": "NO"
  },
  {
    "MOLECULE": "CN1c2ccsc2C(O)=C(C(=S)Nc2ccccc2)S1(=O)=O",
    "LABEL VALUE": "NO"
  },
  {
    "MOLECULE": "Cc1ccc(NC(=S)C2=C(O)c3sccc3N(C)S2(=O)=O)cc1",
    "LABEL VALUE": "YES"
  },
  {
    "MOLECULE": "Cc1c(N2C(=O)C(=O)/C(=C(/O)c3ccccc3)C2c2ccc(F)cc2)c(=O)n(-c2ccccc2)n1C (stereo unspecified)",
    "LABEL VALUE": "NO"
  },
  {
    "MOLECULE": "Cc1ccc(C(=O)C2=C(O)C(=O)N(Cc3ccccc3)C2c2cccnc2)o1 (stereo unspecified)",
    "LABEL VALUE": "NO"
  },
  {
    "MOLECULE": "O=C(/C=C/c1cccc([N+](=O)[O-])c1)NCc1ccc2c(c1)OCO2",
    "LABEL VALUE": "NO"
  },
  {
    "MOLECULE": "O=C(NCc1ccco1)c1cccc(F)c1",
    "LABEL VALUE": "NO"
  }
]
